# TARGET_OF_ASSAY: integrin-αvβ1 (UniProt P06756 31-1048; P05556 21-798)
# Sequence (P06756 31-992, chain 1 of 2): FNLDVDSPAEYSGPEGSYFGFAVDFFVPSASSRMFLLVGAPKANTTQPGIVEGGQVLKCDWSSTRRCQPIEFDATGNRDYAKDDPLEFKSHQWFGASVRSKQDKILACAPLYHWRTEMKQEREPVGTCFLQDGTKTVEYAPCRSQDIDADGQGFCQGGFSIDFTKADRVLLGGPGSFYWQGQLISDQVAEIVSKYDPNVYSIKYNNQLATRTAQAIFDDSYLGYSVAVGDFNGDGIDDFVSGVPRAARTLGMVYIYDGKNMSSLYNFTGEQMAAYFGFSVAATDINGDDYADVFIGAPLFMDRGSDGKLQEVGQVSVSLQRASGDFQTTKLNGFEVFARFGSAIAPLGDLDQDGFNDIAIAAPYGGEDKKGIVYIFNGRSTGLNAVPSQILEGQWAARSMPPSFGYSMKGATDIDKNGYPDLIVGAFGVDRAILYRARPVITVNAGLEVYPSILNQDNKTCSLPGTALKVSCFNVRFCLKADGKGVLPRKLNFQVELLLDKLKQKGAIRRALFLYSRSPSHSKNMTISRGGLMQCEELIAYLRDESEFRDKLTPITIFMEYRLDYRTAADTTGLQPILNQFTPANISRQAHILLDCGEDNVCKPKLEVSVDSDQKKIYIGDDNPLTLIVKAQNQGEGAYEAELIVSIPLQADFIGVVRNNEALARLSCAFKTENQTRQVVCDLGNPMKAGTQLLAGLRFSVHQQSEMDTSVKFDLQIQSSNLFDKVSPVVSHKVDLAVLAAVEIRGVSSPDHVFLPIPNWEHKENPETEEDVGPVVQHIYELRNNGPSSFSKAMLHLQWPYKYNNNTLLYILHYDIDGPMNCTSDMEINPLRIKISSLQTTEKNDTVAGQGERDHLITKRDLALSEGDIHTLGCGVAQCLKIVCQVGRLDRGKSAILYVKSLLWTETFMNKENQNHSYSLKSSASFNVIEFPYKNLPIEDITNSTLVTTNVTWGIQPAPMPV
# Sequence (P05556 21-728, chain 2 of 2): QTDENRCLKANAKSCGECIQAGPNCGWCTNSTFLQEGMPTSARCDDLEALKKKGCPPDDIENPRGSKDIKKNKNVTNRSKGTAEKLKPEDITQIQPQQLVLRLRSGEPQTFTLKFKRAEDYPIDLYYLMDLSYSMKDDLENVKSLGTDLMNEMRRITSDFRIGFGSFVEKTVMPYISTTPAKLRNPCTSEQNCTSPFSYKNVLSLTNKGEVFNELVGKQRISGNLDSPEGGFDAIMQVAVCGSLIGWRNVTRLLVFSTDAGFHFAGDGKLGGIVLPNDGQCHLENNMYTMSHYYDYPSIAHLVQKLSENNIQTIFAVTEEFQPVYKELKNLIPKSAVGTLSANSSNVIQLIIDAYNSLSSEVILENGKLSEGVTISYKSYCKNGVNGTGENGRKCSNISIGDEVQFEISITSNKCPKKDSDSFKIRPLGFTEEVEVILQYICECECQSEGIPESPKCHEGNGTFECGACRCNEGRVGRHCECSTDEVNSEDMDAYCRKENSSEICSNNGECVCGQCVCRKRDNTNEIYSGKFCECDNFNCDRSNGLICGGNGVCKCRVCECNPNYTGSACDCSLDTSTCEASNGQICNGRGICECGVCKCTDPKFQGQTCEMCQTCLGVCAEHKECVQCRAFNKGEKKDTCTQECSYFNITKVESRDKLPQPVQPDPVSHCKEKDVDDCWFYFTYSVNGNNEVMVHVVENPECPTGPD
# ASSAY_NAME: SPR
QUANTITY_MEASURED: pKd
Kindly note that pKd refers to -log10 of the concentration in mol/L and answer with the value alone.

[in] State the recorded pKd for this entry: NHIPERAGSGSQVPTEPKKLEENEVIPKRISPVEESEDVSNKVSM (The limits and source of the SPR ligand are not printed. The soluble ectodomain heterodimer is assumed by convention from the UniProt extracellular topology. Alpha-V may be cleaved into heavy and light chains joined by a disulfide. Amine-coupled to a CM5 chip.) [SDC4_(87-131)]
[out] 7.36
